- testTarget: Hypoxanthine-guanine phosphoribosyltransferase (Homo sapiens)
- Sequence (P00492 whole entry): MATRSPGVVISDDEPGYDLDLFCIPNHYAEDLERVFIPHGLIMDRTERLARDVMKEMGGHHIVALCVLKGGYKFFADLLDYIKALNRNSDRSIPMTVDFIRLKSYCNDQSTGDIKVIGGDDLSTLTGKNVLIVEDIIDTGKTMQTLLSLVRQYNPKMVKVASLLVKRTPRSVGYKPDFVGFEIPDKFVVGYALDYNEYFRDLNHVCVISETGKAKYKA
- experiment: Binding affinity to human HGPRT assessed as inhibition of constant
reportedMetric: pKi
Answers are plain numbers, as −log10 of the molar value.

Input: pKi for CCOC(=O)[C@H](Cc1ccccc1)NP(=O)(N[C@@H](Cc1ccccc1)C(=O)OCC)OCOCCN ?
Output: 6.16

----------
- testTarget: Phospho-N-acetylmuramoyl-pentapeptide-transferase (Escherichia coli, UniProt E2QF15)
- Sequence (E2QF15 whole entry): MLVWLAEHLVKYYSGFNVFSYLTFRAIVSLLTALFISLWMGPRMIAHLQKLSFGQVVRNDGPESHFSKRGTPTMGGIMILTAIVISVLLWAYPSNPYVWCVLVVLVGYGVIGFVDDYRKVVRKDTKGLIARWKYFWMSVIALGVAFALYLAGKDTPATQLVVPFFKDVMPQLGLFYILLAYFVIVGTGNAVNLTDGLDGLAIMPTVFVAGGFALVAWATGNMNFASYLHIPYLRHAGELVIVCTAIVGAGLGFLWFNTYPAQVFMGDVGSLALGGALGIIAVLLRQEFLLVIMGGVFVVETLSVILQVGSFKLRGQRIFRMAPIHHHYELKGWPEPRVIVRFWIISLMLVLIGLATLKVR
pIC50: −log10 of the molar value.
Threshold rule: pIC50 greater than or equal to 5 is label 1; below that, label 0.

molecularstring=CO[C@H]1[C@@H](O)[C@H](n2ccc(=O)[nH]c2=O)O[C@@H]1[C@@H](O[C@@H]1OC(C(=O)N[C@H]2CSC[C@@H](C)NC2=O)=C[C@@H](O)[C@H]1O)C(N)=O class="label 1"
molecularstring=CO[C@H]1[C@@H](OC)[C@H](n2ccc(=O)[nH]c2=O)O[C@@H]1[C@@H](O[C@@H]1OC(C(=O)NCCSSCCNC(C)=O)=C[C@@H](O)[C@H]1O)C(N)=O class="label 1"

Input: Kindly determine if pIC50 recorded for CC(C)[C@H](NC(=O)N[C@H](C(=O)N[C@H](C(=O)NCCCN[C@@H](CC[C@H]1O[C@@H](n2ccc(=O)[nH]c2=O)[C@H](O)[C@@H]1O)C(=O)O)[C@@H](O)C(C)C)[C@@H]1CCNC(=N)N1)C(=O)O is above or exactly 5.
Output: label 1

Input: Kindly determine if pIC50 recorded for N=CNC[C@H]1O[C@@H](OC[C@H]2O[C@@H](n3ccc(=O)[nH]c3=O)[C@H](O)[C@@H]2O)[C@H](O)[C@@H]1O is above or exactly 5.
Output: label 0

Input: Kindly determine if pIC50 recorded for CNC[C@H]1O[C@@H](OC[C@H]2O[C@@H](n3ccc(=O)[nH]c3=O)[C@H](O)[C@@H]2O)[C@H](O)[C@@H]1O is above or exactly 5.
Output: label 0

----------
- Test system: Pseudomonas aeruginosa
- experiment: Antibacterial activity against Pseudomonas aeruginosa assessed as bacterial growth reduction
- Type: functional
For each entry below, report its MIC value.

Please review the following examples before continuing.
molecule=C[C@@H](NC(=O)N[C@@H](Cc1c[nH]c2ccccc12)C(=O)O)C(=O)N[C@H](C(=O)N/C=C1/C[C@@H](O)[C@H](n2ccc(=O)[nH]c2=O)O1)[C@H](C)N(C)C(=O)[C@@H](N)CN reportedmetric=MIC reportedresult="16 µg/mL"
molecule="C[C@@H]([C@H](NC(=O)[C@H](Cc1ccccc1)NC(=O)N[C@@H](Cc1c[nH]c2ccccc12)C(=O)O)C(=O)NCC1C[C@@H](O)[C@H](n2ccc(=O)[nH]c2=O)O1)N(C)C(=O)[C@@H](N)Cc1ccc(O)cc1 (some centres not stated)" reportedmetric=MIC reportedresult="16 µg/mL"
molecule=C[C@@H]([C@H](NC(=O)[C@H](Cc1ccccc1)NC(=O)N[C@@H](Cc1c[nH]c2ccccc12)C(=O)O)C(=O)NC[C@H]1C[C@@H](O)[C@H](n2ccc(=O)[nH]c2=O)O1)N(C)C(=O)CN reportedmetric=MIC reportedresult="8 µg/mL"
molecule=CC(C)C[C@H](NC(=O)N[C@@H](Cc1c[nH]c2ccccc12)C(=O)O)C(=O)N[C@H](C(=O)NC[C@H]1C[C@@H](O)[C@H](n2ccc(=O)[nH]c2=O)O1)[C@H](C)N(C)C(=O)CN reportedmetric=MIC reportedresult="4 µg/mL"
molecule="CC(C)C[C@H](NC(=O)N[C@@H](Cc1ccc(O)cc1)C(=O)O)C(=O)N[C@H](C(=O)NCC1C[C@@H](O)[C@H](n2ccc(=O)[nH]c2=O)O1)[C@H](C)N(C)C(=O)[C@H](C)N (some centres not stated)" reportedmetric=MIC reportedresult="16 µg/mL"
molecule="C[C@H](N)C(=O)N(C)[C@@H](C)[C@H](NC(=O)[C@H](Cc1ccccc1)NC(=O)N[C@@H](Cc1c[nH]c2ccccc12)C(=O)O)C(=O)NCC1C[C@@H](O)[C@H](n2ccc(=O)[nH]c2=O)O1 (some centres not stated)" reportedmetric=MIC reportedresult="16 µg/mL"

Attention now turns to another entry.
Input: MIC for C[C@@H]([C@H](NC(=O)[C@H](Cc1ccccc1)NC(=O)N[C@@H](Cc1c[nH]c2ccccc12)C(=O)O)C(=O)NCC1C[C@@H](O)[C@H](n2ccc(=O)[nH]c2=O)O1)N(C)C(=O)[C@@H](N)Cc1ccc(F)cc1 (some centres not stated) ?
Output: 16 µg/mL

Taken from ChEMBL document CHEMBL5257035.
